molecular target: VHL-ElonginBC complex (Homo sapiens, UniProt P40337); construct: His-TEV (cleaved yes); assay: Fluorescence-polarization competitive binding assay for VHL protein; conditions: FP competition, VHL protein and fluorescent probe both 5 nM
REPORTED_ENDPOINT: pIC50
Entry type: numeric. Quantity: pIC50, the -log10 of concentration in molar units.

Value lookup for pIC50; key = CC(=O)N[C@H](C(=O)N1C[C@H](O)C[C@H]1C(=O)N[C@@H](C)c1ccc(-c2scnc2C)cc1)C(C)(C)C 6.79

----------
biological target: AR protein (Homo sapiens, UniProt P10275, T878A); construct: The percent AR protein degradation induced by these compounds at various concentrations in LNCaP cells; host or cells: LNCaP; experiment: AR protein degradation in LNCaP cells (Western blotting); assay type: cell-based; settings: LNCaP; 0.1 μM, treatment time 6 h, average of three independent experiments; read-out: % AR protein degradation in LNCaP Cells
REPORTED_ENDPOINT: Dmax at 0.1 µM
Express the reported value numerically, then name its unit.

Example entries begin here.
Requested read-out Dmax at 0.1 µM, target or system AR protein (Homo sapiens, UniProt P10275, T878A), entry Cc1ncsc1-c1ccc(CNC(=O)C2C[C@@H](O)CN2C(=O)[C@@H](NC(=O)CCOCCOCCNC(=O)c2ccc(N3C(=S)N(c4ccc(C#N)c(C(F)(F)F)c4)C(=O)C3(C)C)cc2F)C(C)(C)C)cc1 (stereo partly drawn) 32%

Record Cc1ncsc1-c1ccc(CNC(=O)C2C[C@@H](O)CN2C(=O)[C@@H](NC(=O)CCNC(=O)c2ccc(N3C(=S)N(c4ccc(C#N)c(C(F)(F)F)c4)C(=O)C3(C)C)cc2F)C(C)(C)C)cc1 (stereo partly drawn) : what is its Dmax at 0.1 µM with AR protein (Homo sapiens, UniProt P10275, T878A)? 26%

Requested read-out Dmax at 0.1 µM, target or system AR protein (Homo sapiens, UniProt P10275, T878A), entry Cc1ncsc1-c1ccc([C@H](C)NC(=O)[C@@H]2C[C@@H](O)CN2C(=O)[C@@H](NC(=O)CCCCN2CCN(c3ccc(C#Cc4ccc(N5C(=S)N(c6ccc(C#N)c(C(F)(F)F)c6)C(=O)C5(C)C)cc4)cn3)CC2)C(C)(C)C)cc1 48%

Which measured Dmax at 0.1 µM belongs to Cc1ncsc1-c1ccc([C@H](C)NC(=O)C2C[C@@H](O)CN2C(=O)[C@@H](NC(=O)CCCN2CCN(c3ccc(C#Cc4ccc(N5C(=S)N(c6ccc(C#N)c(C(F)(F)F)c6)C(=O)C5(C)C)cc4)cn3)CC2)C(C)(C)C)cc1 (stereo partly drawn) , tested on AR protein (Homo sapiens, UniProt P10275, T878A)? 61%

***
Please provide the recorded Dmax at 0.1 µM for Cc1cc([C@H](C(=O)N2C[C@H](O)C[C@H]2C(=O)N[C@@H](CC(=O)N2CCC(N3CCC(C#Cc4ccc(N5C(=S)N(c6cnc(C#N)c(C(F)(F)F)c6)C(=O)C56CCC6)cc4)CC3)CC2)c2ccc(-c3scnc3C)cc2)C(C)C)on1 , tested on AR protein (Homo sapiens, UniProt P10275, T878A). 80%

Record lookup: for AR protein (Homo sapiens, UniProt P10275, T878A), what Dmax at 0.1 µM belongs to Cc1ncsc1-c1ccc(CNC(=O)C2C[C@@H](O)CN2C(=O)[C@@H](NC(=O)CCCCCCNC(=O)c2ccc(N3C(=S)N(c4ccc(C#N)c(C(F)(F)F)c4)C(=O)C3(C)C)cc2F)C(C)(C)C)cc1 (stereo partly drawn) ? 54%

Request: Dmax at 0.1 µM, test system AR protein (Homo sapiens, UniProt P10275, T878A), entry Cc1ncsc1-c1ccc(CNC(=O)C2C[C@@H](O)CN2C(=O)[C@@H](NC(=O)CCCCCCCCCNC(=O)c2ccc(N3C(=S)N(c4ccc(C#N)c(C(F)(F)F)c4)C(=O)C3(C)C)cc2F)C(C)(C)C)cc1 (stereo partly drawn) 48%

Report Dmax at 0.1 µM for Cc1ncsc1-c1ccc(CNC(=O)C2C[C@@H](O)CN2C(=O)[C@@H](NC(=O)CCCCCNC(=O)c2ccc(N3C(=S)N(c4ccc(C#N)c(C(F)(F)F)c4)C(=O)C3(C)C)cc2F)C(C)(C)C)cc1 (stereo partly drawn) tested on AR protein (Homo sapiens, UniProt P10275, T878A). 11%

// map Cc1cc([C@H](C(=O)N2C[C@H](O)C[C@H]2C(=O)N[C@@H](CC(=O)NCCCN2CCN(c3ccc(C#Cc4ccc(N5C(=S)N(c6ccc(C#N)c(C(F)(F)F)c6)C(=O)C5(C)C)cc4)cn3)CC2)c2ccc(-c3scnc3C)cc2)C(C)C)on1 to recorded Dmax at 0.1 µM (system: AR protein (Homo sapiens, UniProt P10275, T878A)) 75%

----------
target: AR protein (Homo sapiens, UniProt P10275, T878A); construct: The percent AR protein degradation induced by these compounds at various concentrations in LNCaP cells; host or cells: LNCaP; assay: AR protein degradation in LNCaP cells (Western blotting); assay type: cell-based; conditions: LNCaP; 10 μM, treatment time 6 h, average of three independent experiments; read-out: % AR protein degradation in LNCaP Cells
Parameter Dmax at 10 µM: see the listing below.
Dear colleague, please return just the value in %, with no unit written.

Reported Dmax at 10 µM, molecule Cc1ncsc1-c1ccc(CNC(=O)C2C[C@@H](O)CN2C(=O)[C@@H](NC(=O)CCCNC(=O)c2ccc(N3C(=S)N(c4ccc(C#N)c(C(F)(F)F)c4)C(=O)C3(C)C)cc2F)C(C)(C)C)cc1 (stereo partly drawn) : ____ 33

What measured Dmax at 10 µM goes with Cc1ncsc1-c1ccc(CNC(=O)C2C[C@@H](O)CN2C(=O)[C@@H](NC(=O)CCCCCCCCCCCNC(=O)c2ccc(N3C(=S)N(c4ccc(C#N)c(C(F)(F)F)c4)C(=O)C3(C)C)cc2F)C(C)(C)C)cc1 (stereo partly drawn) ? 75

Further cases:
# Dmax at 10 µM lookup, item Cc1ncsc1-c1ccc(CNC(=O)C2C[C@@H](O)CN2C(=O)[C@@H](NC(=O)CCCN2CCN(c3ccc(C#Cc4ccc(N5C(=S)N(c6ccc(C#N)c(C(F)(F)F)c6)C(=O)C5(C)C)cc4)cn3)CC2)C(C)(C)C)cc1 (stereo partly drawn) 80

// query Dmax at 10 µM value for entry Cc1ncsc1-c1ccc(CNC(=O)C2C[C@@H](O)CN2C(=O)[C@@H](NC(=O)CCOCCOCCNC(=O)c2ccc(N3C(=S)N(c4ccc(C#N)c(C(F)(F)F)c4)C(=O)C3(C)C)cc2F)C(C)(C)C)cc1 (stereo partly drawn) 40

Which measured Dmax at 10 µM value corresponds to Cc1ncsc1-c1ccc(CNC(=O)C2C[C@@H](O)CN2C(=O)[C@@H](NC(=O)CCCCCCNC(=O)c2ccc(N3C(=S)N(c4ccc(C#N)c(C(F)(F)F)c4)C(=O)C3(C)C)cc2F)C(C)(C)C)cc1 (stereo partly drawn) ? 64

What value of Dmax at 10 µM has been recorded for this entry: Cc1ncsc1-c1ccc(CNC(=O)C2C[C@@H](O)CN2C(=O)[C@@H](NC(=O)CCNC(=O)c2ccc(N3C(=S)N(c4ccc(C#N)c(C(F)(F)F)c4)C(=O)C3(C)C)cc2F)C(C)(C)C)cc1 (stereo partly drawn) 28

----------
molecular target: AR protein (Homo sapiens, UniProt P10275, T878A); construct: The percent AR protein degradation induced by these compounds at various concentrations in LNCaP cells; host or cells: LNCaP; assay: AR protein degradation in LNCaP cells (Western blotting); assay type: cell-based; settings: LNCaP; 0.01 μM, treatment time 6 h, average of three independent experiments
# maps each entry to its Dmax at 0.01 µM
Respond numerically; units are % and should not be typed.

Study these solved cases before continuing.
For the compound Cc1ncsc1-c1ccc(CNC(=O)C2C[C@@H](O)CN2C(=O)[C@@H](NC(=O)CCCCCCc2ccc(C#Cc3ccc(N4C(=S)N(c5ccc(C#N)c(C(F)(F)F)c5)C(=O)C4(C)C)cc3)cn2)C(C)(C)C)cc1 (stereo partly shown) [Compound 19] , what Dmax at 0.01 µM is on record? 30

Dmax at 0.01 µM for Cc1cc([C@H](C(=O)N2C[C@H](O)C[C@H]2C(=O)N[C@@H](CC(=O)N2CCC(N3CCC(C#Cc4ccc(N5C(=S)N(c6cnc(C#N)c(C(F)(F)F)c6)C(=O)C56CCC6)cc4)CC3)CC2)c2ccc(-c3scnc3C)cc2)C(C)C)on1 [Compound 30] ? 38

# lookup: Dmax at 0.01 µM of Cc1ncsc1-c1ccc([C@H](C)NC(=O)[C@@H]2C[C@@H](O)CN2C(=O)[C@@H](NC(=O)CCCCN2CCN(c3ccc(C#Cc4ccc(N5C(=S)N(c6ccc(C#N)c(C(F)(F)F)c6)C(=O)C5(C)C)cc4)cn3)CC2)C(C)(C)C)cc1 [Compound 22] 28

Continuing:
Name the reported Dmax at 0.01 µM value associated with the compound Cc1ncsc1-c1ccc(CNC(=O)C2C[C@@H](O)CN2C(=O)[C@@H](NC(=O)CCCCCCCNC(=O)c2ccc(N3C(=S)N(c4ccc(C#N)c(C(F)(F)F)c4)C(=O)C3(C)C)cc2F)C(C)(C)C)cc1 (stereo partly shown) [Compound 13] 8
